Quick reference for MS(Microsomal Stability) (%) human among some compounds
Details: 1 μM, 30 minutes, 37° C., NADPH
Give a bare numeral; the unit % is implied.

Which MS(Microsomal Stability) (%) human is reported for this compound? `Cl.Cl.OCCC/C(=C(\c1ccc(O)cc1)c1ccc(OCCN2CCNCC2)cc1)c1ccccc1`
49.0

Form field: reported MS(Microsomal Stability) (%) human of OCCC/C(=C(\c1ccc(O)cc1)c1ccc(C2CNC2)cc1)c1ccccc1 [Compound 20e]
78.1

Which MS(Microsomal Stability) (%) human is listed for CN1CCN(c2ccc(/C(=C(/CCCO)c3ccccc3)c3ccc(N)cc3)cc2)CC1 [Compound 26a] ?
72.3

Any idea what its MS(Microsomal Stability) (%) human is? The compound is CC(C)N1CCC(c2ccc(/C(=C(/CCCO)c3ccccc3)c3cccc(O)c3)cc2)C1 (racemic) [Compound 22u]
40.0

Any idea what its MS(Microsomal Stability) (%) human is? The compound is CC(=O)Nc1ccc(/C(=C(\CCCOC(C)=O)c2ccccc2)c2ccc(C3CCN(C4CC4)CC3)cc2)cc1 [Compound 27d]
63.7

Any idea what MS(Microsomal Stability) (%) human was measured for OCCC/C(=C(\c1ccc(O)cc1)c1ccc(N2CCNCC2)cc1)c1ccccc1 [Compound 20c] ?
55.8

Can you look up the measured MS(Microsomal Stability) (%) human of CC(C)N1CCN(c2ccc(/C(=C(/CCCO)c3ccccc3)c3ccc(N)cc3)cc2)CC1 [Compound 26b] for me?
49.1

Which value of MS(Microsomal Stability) (%) human has been reported for OCCC/C(=C(\c1ccc(O)cc1)c1ccc(C2=CCN(C3CC3)CC2)cc1)c1ccccc1 [Compound 22j] in the records?
65.2

====

Target: CYP2D6 (Homo sapiens (Human))
Sequence (P10635 whole entry): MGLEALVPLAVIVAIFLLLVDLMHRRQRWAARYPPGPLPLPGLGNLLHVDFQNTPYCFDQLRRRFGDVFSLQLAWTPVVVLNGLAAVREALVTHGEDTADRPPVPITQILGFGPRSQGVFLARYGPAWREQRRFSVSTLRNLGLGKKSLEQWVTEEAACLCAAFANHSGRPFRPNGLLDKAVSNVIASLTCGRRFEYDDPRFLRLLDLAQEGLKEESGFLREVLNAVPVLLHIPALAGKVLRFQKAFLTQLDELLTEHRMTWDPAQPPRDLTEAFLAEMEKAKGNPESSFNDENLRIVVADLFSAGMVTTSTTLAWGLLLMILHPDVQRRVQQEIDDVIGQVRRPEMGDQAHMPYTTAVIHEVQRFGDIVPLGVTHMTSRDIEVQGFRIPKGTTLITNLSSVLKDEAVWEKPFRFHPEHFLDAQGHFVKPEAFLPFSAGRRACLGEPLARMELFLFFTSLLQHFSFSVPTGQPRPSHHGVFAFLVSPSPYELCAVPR
Assay: Cytochrome P450 activity inhibition, CYP2D6
Assay type: in vitro ADME
Details: 10 μM, human liver microsomes, Dextromethorphan substrate
CYP inhibition (% of control) 2D6: recorded values

Please review the entries below; each comes with its answer.
CC(C)N1CCC(c2ccc(/C(=C(/CCCO)c3ccccc3)c3ccc(O)cc3)cc2)CC1 [Compound 22k]: 73.7 % of control
Cc1ccc(/C(=C(\CCCO)c2ccccc2)c2ccc(C3CCNCC3)cc2)cc1 [Compound 20k]: 96.2 % of control
Cc1ccc(/C(=C(\CCCO)c2ccccc2)c2ccc(N3CCN(C)CC3)cc2)cc1 [Compound 18f]: 68.2 % of control
Cc1ccc(/C(=C(\CCCO)c2ccccc2)c2ccc(N3CCN(C(C)C)CC3)cc2)cc1 [Compound 18b]: 68.9 % of control
OCCC/C(=C(\c1ccc(O)cc1)c1ccc(OCCN2C[C@H]3C[C@H]3[C@H]2CO)cc1)c1ccccc1 [Compound 38d]: 54.3 % of control
Cc1ccc(/C(=C(\CCCO)c2ccccc2)c2ccc(C3CN(C(C)C)C3)cc2)cc1 [Compound 22e]: 71.8 % of control
CCN1CCN(c2ccc(/C(=C(/CCCO)c3ccccc3)c3ccc(C)cc3)cc2)CC1 [Compound 18j]: 86.6 % of control

// moving on: another record for CYP inhibition (% of control) 2D6
CYP inhibition (% of control) 2D6 of CC(C)N1CCN(c2ccc(/C(=C(/CCCO)c3ccccc3)c3ccc(N)cc3)cc2)CC1 [Compound 26b] on CYP2D6 (Homo sapiens (Human))?
81.9 % of control

====

// reported pIC50 for each item listed
Molecular target: hERG channel (Homo sapiens (Human), UniProt Q12809)
Conditions: read-out: hERG IC50; fluorescence polarization assay
Schema: pIC50 number; meaning minus log10 of the concentration expressed in molar units.

CC(C)N1CCC(c2ccc(/C(=C(/CCCO)c3ccccc3)c3ccc(O)cc3)cc2)CC1 [Compound 22g]: 4.66
CC(C)N1CCN(c2ccc(C(=C(CCCO)c3ccccc3)c3ccc(O)cc3)cc2)CC1 [Compound 18a]: 4.73
Cc1ccc(/C(=C(\CCCO)c2ccccc2)c2ccc(N3CCN(C)CC3)cc2)cc1 [Compound 18f]: 4.72
Cc1ccc(/C(=C(\CCCO)c2ccccc2)c2ccc(C3CNC3)cc2)cc1 [Compound 20d]: 4.82

Alright, here's another compound for you.
Tell me the measured pIC50 of OCCC/C(=C(/c1ccc(C2CCN(C3CC3)CC2)cc1)c1cccc(O)c1)c1ccccc1 [Compound 22r] , please.
4.79

====

Assay: in vivo
Format: in vivo
Conditions: in vivo; rat, PO, 10 mg/kg; read-out: Tmax
Readout kind: Tmax (h)
Field: numeric (h). Do not append units.

Name the recorded Tmax for CN(C)CCOc1ccc(/C(=C(/CCCO)c2ccccc2)c2ccc(O)cc2)cc1 [GSK5182, reference compound] .
1.9

====

Experiment: in vivo
Type: in vivo
Conditions: rat, IV, 1 mg/kg
Readout kind: AUCINF (μMh)
Give your result in μMh as a bare value.

Reference set, count: 5
CC(C)N1CCN(c2ccc(/C(=C(/CCCO)c3ccccc3)c3ccc(Br)cc3)cc2)CC1 [Compound 18e]: 0.06
CC(C)N1CCC(c2ccc(/C(=C(/CCCO)c3ccccc3)c3cccc(O)c3)cc2)CC1 [Compound 22m]: 0.00
CC(C)N1CCN(c2ccc(C(=C(CCCO)c3ccccc3)c3ccc(O)cc3)cc2)CC1 [Compound 18a]: 0.49
OCCC/C(=C(\c1ccc(O)cc1)c1ccc(C2CNC2)cc1)c1ccccc1 [Compound 20e]: 0.34
Cc1ccc(/C(=C(\CCCO)c2ccccc2)c2ccc(N3CCN(C(C)C)CC3)cc2)cc1 [Compound 18b]: 0.64

# next compound below
# query: AUCINF of entry OCCC/C(=C(\c1ccc(O)cc1)c1ccc(C2CCN(C3CC3)CC2)cc1)c1ccccc1 [Compound 22i]
0.54

====

Settings: 1 μM, 30 minutes, 37° C., NADPH
Listed here are compounds together with their documented MS(Microsomal Stability) (%) rat.

OCCC/C(=C(\c1ccc(O)cc1)c1ccc(OCCN2C[C@H]3CNC[C@H]3C2)cc1)c1ccccc1: 72.0%
Nc1ccc(/C(=C(\CCCO)c2ccccc2)c2ccc(C3CCN(C4CC4)CC3)cc2)cc1 [Compound 26d]: 72.2%
CC(C)(C)OC(=O)N1CC(c2ccc(/C(=C(/CCCO)c3ccccc3)c3ccc(O)cc3)cc2)C1 [Compound 18t]: 80.5%

Shift focus to the following entry.
Given CN(C)CCOc1ccc(/C(=C(/CCCO)c2ccccc2)c2ccc(O)cc2)cc1 [GSK5182, reference compound] , state its recorded MS(Microsomal Stability) (%) rat.
26.0-29.1%

====

Experiment: in vivo
Format: in vivo
Details: rat, PO, 10 mg/kg
Everything with AUCINF lower than 1 μMh is F; everything else, including exactly 1 μMh, is T.

State whether the measured AUCINF reaches 1 μMh, counting equality as reaching it, for OCCC/C(=C(/c1ccc(C2CCN(C3CC3)CC2)cc1)c1cccc(O)c1)c1ccccc1 [Compound 22r]
T

# bool: AUCINF of OCCC/C(=C(\c1ccc(O)cc1)c1ccc(C2CCN(C3CC3)CC2)cc1)c1ccccc1 [Compound 22i] >= 1 μMh
T

# bool: AUCINF of CC(C)N1CCC(c2ccc(/C(=C(/CCCO)c3ccccc3)c3cccc(O)c3)cc2)CC1 [Compound 22m] >= 1 μMh
F

Does CC(C)N1CCN(c2ccc(/C(=C(/CCCO)c3ccccc3)c3ccc(Br)cc3)cc2)CC1 [Compound 18e] have a reported AUCINF of at least 1 μMh?
F

Quick check, AUCINF >= 1 μMh? CCN1CCN(c2ccc(/C(=C(/CCCO)c3ccccc3)c3ccc(C)cc3)cc2)CC1 [Compound 18j]
T

Does Cc1ccc(/C(=C(\CCCO)c2ccccc2)c2ccc(N3CCN(C)CC3)cc2)cc1 [Compound 18f] have a reported AUCINF of at least 1 μMh?
T

hey, is AUCINF for this one >= 1 μMh? CC(C)N1CCC(c2ccc(/C(=C(/CCCO)c3ccccc3)c3ccc(O)cc3)cc2)C1 (racemic) [Compound 22s]
F

Hi team, for CN(C)CCOc1ccc(/C(=C(/CCCO)c2ccccc2)c2ccc(O)cc2)cc1 [GSK5182, reference compound] , is the recorded AUCINF at or above 1 μMh?
F

Tell me whether AUCINF is at least 1 μMh here: Cc1ccc(/C(=C(\CCCO)c2ccccc2)c2ccc(N3CCN(C(C)C)CC3)cc2)cc1 [Compound 18b]
F

Does the compound CC(C)N1CCN(c2ccc(C(=C(CCCO)c3ccccc3)c3ccc(O)cc3)cc2)CC1 [Compound 18a] have recorded AUCINF that is 1 μMh or more?
T

====

Biological target: CYP3A4 (Homo sapiens (Human))
Sequence (P08684 whole entry): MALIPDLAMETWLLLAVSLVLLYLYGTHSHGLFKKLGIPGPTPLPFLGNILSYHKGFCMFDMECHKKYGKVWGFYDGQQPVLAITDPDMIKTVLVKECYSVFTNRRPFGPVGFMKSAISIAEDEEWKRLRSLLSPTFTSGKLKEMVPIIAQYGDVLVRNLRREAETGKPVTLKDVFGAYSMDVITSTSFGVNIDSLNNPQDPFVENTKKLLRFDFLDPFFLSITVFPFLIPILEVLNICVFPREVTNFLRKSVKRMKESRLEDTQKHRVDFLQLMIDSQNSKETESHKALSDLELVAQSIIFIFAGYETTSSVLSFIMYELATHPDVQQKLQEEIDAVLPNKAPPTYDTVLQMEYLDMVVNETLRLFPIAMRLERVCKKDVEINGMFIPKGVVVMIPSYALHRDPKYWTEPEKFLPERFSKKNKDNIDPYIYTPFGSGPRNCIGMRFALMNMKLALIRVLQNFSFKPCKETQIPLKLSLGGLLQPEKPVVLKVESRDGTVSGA
Assay: Cytochrome P450 activity inhibition, CYP3A4
Type: in vitro ADME
Details: 10 μM, human liver microsomes, Midazolam substrate
Readout kind: CYP inhibition (% of control) 3A4

Example results:
Nc1ccc(/C(=C(\CCCO)c2ccccc2)c2ccc(C3CCN(C4CC4)CC3)cc2)cc1 [Compound 26d]: 57.3 % of control
OCCC/C(=C(\c1ccc(O)cc1)c1ccc(N2CCN(C3CCCCC3)CC2)cc1)c1ccccc1 [Compound 22p]: 90.6 % of control
Cc1ccc(/C(=C(\CCCO)c2ccccc2)c2ccc(C3CCNCC3)cc2)cc1 [Compound 20k]: 83.6 % of control
CC(C)N1CCN(c2ccc(/C(=C(/CCCO)c3ccccc3)c3ccc(N)cc3)cc2)CC1 [Compound 26b]: 60.9 % of control
OCCC/C(=C(/c1ccc(C2CCN(C3CC3)CC2)cc1)c1cccc(O)c1)c1ccccc1 [Compound 22r]: 82.7 % of control

Entry OCCC/C(=C(\c1ccc(O)cc1)c1ccc(N2CCNCC2)cc1)c1ccccc1 [Compound 20j] : reported CYP inhibition (% of control) 3A4 = ?
66.2 % of control

Bench note: what CYP inhibition (% of control) 3A4 did OCCC/C(=C(\c1ccc(O)cc1)c1ccc(C2CN(C3CC3)C2)cc1)c1ccccc1 [Compound 22d] show?
66.1 % of control

Consider the compound OCCC/C(=C(\c1ccc(O)cc1)c1ccc(N2CCN(C3CCCC3)CC2)cc1)c1ccccc1 [Compound 22n] and give its measured CYP inhibition (% of control) 3A4.
88.3 % of control

Can you share its CYP inhibition (% of control) 3A4? I mean this compound: CN1CCN(c2ccc(/C(=C(/CCCO)c3ccccc3)c3ccc(O)cc3)cc2)CC1 [Compound 18d]
64 % of control

Find the recorded CYP inhibition (% of control) 3A4 belonging to OCCC/C(=C(\c1ccc(O)cc1)c1ccc(N2CCN(C3CCC3)CC2)cc1)c1ccccc1 [Compound 22q] and report it.
81 % of control

What CYP inhibition (% of control) 3A4 value was documented for this compound, CN(C)CCOc1ccc(/C(=C(/CCCO)c2ccccc2)c2ccc(O)cc2)cc1 [GSK5182, reference compound] ?
83 % of control

Which CYP inhibition (% of control) 3A4 value belongs to CC(C)N1CCN(c2ccc(C(=C(CCCO)c3ccccc3)c3ccc(O)cc3)cc2)CC1 [Compound 18a] ?
66.4 % of control

May I ask what CYP inhibition (% of control) 3A4 has been recorded for OCCC/C(=C(\c1ccc(O)cc1)c1ccc(C2=CCN(C3CC3)CC2)cc1)c1ccccc1 [Compound 22j] ?
85 % of control

Which CYP inhibition (% of control) 3A4 value belongs to CN1CCC(c2ccc(/C(=C(/CCCO)c3ccccc3)c3cccc(O)c3)cc2)CC1 [Compound 22ac] ?
85 % of control

Could you share which CYP inhibition (% of control) 3A4 value was measured for OCCC/C(=C(/c1ccc(C2=CCN(C3CC3)CC2)cc1)c1cccc(O)c1)c1ccccc1 [Compound 22l] ?
80.7 % of control

Need CYP inhibition (% of control) 3A4, item OCCC/C(=C(\c1ccc(O)cc1)c1ccc(OCCN2CCC[C@@H]2CO)cc1)c1ccccc1 [Compound 38c]
61.5 % of control
